# soluble fraction (log2) per record follows
- assay comment: soluble fraction after stress (log2 fold change); higher = more stays soluble; pooled small domains, quantitative proteomics;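 also: 20 min heating vs room temperature control held 20 min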
- stated conditions: stress: 75 degC

residue string	soluble fraction (log2)
HMDILEVLIKKDLAMELLEQLTERQRTVVYLRYFYQLNQKEIADYLGISQQRVSEILSRAKAVLTAYTKK	-3
HMNNTIKFFVSQDDDSTRLDVFLSKKIENLTRSNIKKFINLNNVKINKATINSPSKKVKLYDEIEIKFSS	-2.46
HMNQRTATVTASQLNVRSGPSTAYSIVHVLRQGETVEVIGESDGWYQIRLKDGRVGWSSGQYLNLN	-0.142
HMPLPFSPVMFVGTKSGAQTDLDGNYKIETYYSSDSLKVVVLGYAPLAKKVKQGTTSVVNFELSAAS	0.161

====

- assay comment: soluble fraction after stress (log2 fold change); higher = more stays soluble; pooled small domains, quantitative proteomics
- stated conditions: stress: 75 degC
Outcome label depends on soluble fraction (log2) relative to -1: at/above gives yes (1), below gives no (0).

residue string	class label
HMSHKYKLTVPETGEGTRVDKFLSSALTELSRTRLKSLIEEGQVTLGGVKLTNPSHRVKSGDELNIEIPVP	yes (1)
HMQLEPLITSVIPVNFAKAGEVATTIKGKEVGLVSDRGSITAESRTNVLIVKDIKKNVDDISAMVKRLD	yes (1)
HMLPYKGTVAVSLAVLHKAVGVGTADMLKAVGTLRQGTEVTVTGRNGPFAQLKNGLWMKESFLE	no (0)
HMPEPAPALPAKTRVSIRRETGGIIWHEGAWTISPPIRAYDGRWYVAVTTARKGIEFVPVSSVIRS	no (0)
HMETISEIWRLIDGLDEIYRVPLTMYYRSNRSVREIAETLGLSARTVETRIYRARRMIREKWSN	no (0)
HMKDNIRSILEDIPNIGPGRRRALLKHFGSIEAIRRASLEDLIKVDGMNRNAALSIMEYFGM	yes (1)
HMQNKYIIKQGNSGELVEVLQELLNLKQDGVFGPQTKKAVIAFQQKHKLVADGIVGPMSWRKLNFNPEELF	no (0)
HMSVLNLQTDIPKKYTDVLGTSVKGRLNTLVHNVIINSVDRPVIQMSEEVHEAMQGLRIFMFENVYRNPV	yes (1)

====

- assay comment: soluble fraction after stress (log2 fold change); higher = more stays soluble; pooled small domains, quantitative proteomics
- stated conditions: stress: 75 degC

residue string	soluble fraction (log2)
HMLERKPVLVASRDLPALAVIGKDDLSVELLRTAPVGSYDRPEALLGKRVWVAVPAGSILSAATLEP	-0.366
HMNLQAYQSVLDKLNEEYGTTFRFPTEEELHEVGLTNTVDPRTATVSATEFEKYMRPIAERISQANL	-0.205
HMNDNFTPDDLNRLARIKDLPQAKKYALELISNKSAKPMKPEKVRWFANQLQKKKSVMDITKMMYDLLLA	-0.423
HMSIAKIIGDRIRAYRNQKGWSQEYLAEKADVHHTYIGQLERGEKNATIESISKIAGALGVSLSRLFEN	-0.659
HMALPPPELRGATGEAVTALRPAGIALIQGKRYDVLAEGGEWIAAGAAVRVRDIRNGHLIVSDA	-0.268
HMKGTVKFFNESKGFGFITEEGTNKEHFVHVSGLVDEIRENDEVEFDLQDGRKGLNAVNVRV	0.363
HMYSLSELERIKNFLTGYMSDYSIMMLDANEITNQVDISLKDYSDDNIESIKAAVLSHGGKTDYLNFIDDS	-0.926
HMTTVRLNATVPPELALQRLDRVARELFPEYSRNRLQQWIRSGELLVNGSPSGVRDKVPLGAELAVAANLE	-0.657
